Biological target: Fuc(a1-2)[Gal(a1-3)]Gal(b1-3)GlcNAc(b1-2)Man(a1-3)[Fuc(a1-2)[Gal(a1-3)]Gal(b1-3)GlcNAc(b1-2)Man(a1-6)]Man(b1-4)GlcNAc(b1-4)GlcNAc
Test: glycan array binding signal (z-score within array); higher = stronger binding
Conditions: glycan notation: IUPAC condensed, linker removed
About 410 targets per protein were measured; listed, in parts, are those with the strongest signals and a random draw of the rest.
Test Readout: glycan array binding signal (z-score)

- MSMEG3662-2a (Mycobacterium smegmatis), A0QYH7_MYCS2 (protein) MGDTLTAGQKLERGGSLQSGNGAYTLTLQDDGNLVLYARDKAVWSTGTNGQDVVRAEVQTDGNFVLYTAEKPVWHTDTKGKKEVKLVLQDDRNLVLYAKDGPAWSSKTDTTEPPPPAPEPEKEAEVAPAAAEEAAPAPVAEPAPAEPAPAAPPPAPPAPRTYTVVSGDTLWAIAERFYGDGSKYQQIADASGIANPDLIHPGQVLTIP: -0.102
- GSL-I-B4 (Griffonia simplicifolia) (protein) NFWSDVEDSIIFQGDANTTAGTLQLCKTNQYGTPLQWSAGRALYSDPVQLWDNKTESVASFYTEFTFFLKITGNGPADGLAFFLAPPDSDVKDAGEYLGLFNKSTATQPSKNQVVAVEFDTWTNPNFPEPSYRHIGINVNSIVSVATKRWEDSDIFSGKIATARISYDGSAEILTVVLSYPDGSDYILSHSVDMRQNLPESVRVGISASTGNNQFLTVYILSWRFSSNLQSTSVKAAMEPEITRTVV: 1.74
- Gal 8 (Mus musculus), Q9JL15 (protein) MGGSHHHHHHGMASMLSLNNLQNIIYNPIIPYVGTITEQLKPGSLIVIRGHVPKDSERFQVDFQLGNSLKPRADVAFHFNPRFKRSSCIVCNTLTQEKWGWEEITYDMPFRKEKSFEIVFMVLKNKFQVAVNGRHVLLYAHRISPEQIDTVGIYGKVNIHSIGFRFSSASALPHTLGDLQSMETSALGLTQINRENIQKPGKLQLSLPFEARLNASMGPGRTVVIKGEVNTNARSFNVDLVAGKTRDIALHLNPRLNVKAFVRNSFLQDAWGEEERNITCFPFSSGMYFEMIIYCDVREFKVAINGVHSLEYKHRFKDLSSIDTLSVDGDIRLLDVRSW: 3.71
- CCL1 (Coprinopsis cinerea) (protein) MDTQAKPPAGRYVIYNRVLSPNGEKLALTYPGYQREALTLTPLHHSANQIWILNNWDATTSSLTPETARNTQVGWGSGNVPIVLPPGNYVWTLASSAGGYIIQDGGKTVYWNAGEAVANTKVSIGGDNGLQARWIFERV: -0.131
- XTP3-B-MRH2 (Homo sapiens), Q96DZ1 (protein) EFLSGSYCFRGGVGWWKYEFCYGKHVHQYHEDKDSGKTSVVVGTWNQEEHIEWAKKNTARAYHLQDDGTQTVRMVSHFYGNGDICDITDKPRQVTVKLKCKESDSPHAVTVYMLEPHSCQYILGVESPVICKILDTA: 2.72
